Catalogue of koff values
tested-system: T1, cynomolgus monkey CD3 E&D complex protein (Sino Biological Inc., CT032-00323H) (cynomolgus monkey, UniProt Q95LI5 22-117; Q95LI8 22-105)
T1 construct: bought heterodimer
T1 sequence (Q95LI5 22-117, chain 1 of 2): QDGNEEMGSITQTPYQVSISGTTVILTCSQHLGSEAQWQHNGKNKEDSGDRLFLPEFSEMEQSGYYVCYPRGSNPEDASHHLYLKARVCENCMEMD
T1 sequence (Q95LI8 22-105, chain 2 of 2): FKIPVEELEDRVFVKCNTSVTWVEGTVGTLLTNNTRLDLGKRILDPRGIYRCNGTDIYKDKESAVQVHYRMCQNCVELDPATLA
measurement-notes: BLI, antibody on sensor

hzsp34.40 (antibody, human IgG1, kappa, L234A L235A, V domains shown, IgG1 L234A L235A, kappa) VH: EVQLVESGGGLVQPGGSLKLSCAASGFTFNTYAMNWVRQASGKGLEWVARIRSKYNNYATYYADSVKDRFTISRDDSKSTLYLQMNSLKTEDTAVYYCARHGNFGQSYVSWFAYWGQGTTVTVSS VL: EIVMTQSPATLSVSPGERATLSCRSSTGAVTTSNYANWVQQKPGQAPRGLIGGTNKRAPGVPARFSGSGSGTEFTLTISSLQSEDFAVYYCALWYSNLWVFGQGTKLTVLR    0.003 s⁻¹

--- query ---
Which koff is listed for hzsp34.44 (antibody, human IgG1, kappa, L234A L235A, V domains shown, IgG1 L234A L235A, kappa) VH: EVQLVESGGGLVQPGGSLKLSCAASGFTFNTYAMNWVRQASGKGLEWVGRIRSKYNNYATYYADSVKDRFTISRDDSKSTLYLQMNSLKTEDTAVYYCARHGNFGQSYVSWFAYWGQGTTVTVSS VL: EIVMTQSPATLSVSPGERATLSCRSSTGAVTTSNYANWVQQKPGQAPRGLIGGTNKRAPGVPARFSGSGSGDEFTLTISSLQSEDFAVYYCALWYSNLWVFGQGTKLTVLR ?
0.00293 s⁻¹

Origin of measurements: patent US20230374132A1
